test system: Hep3B; assay: relative cell viability (CellTiter-Glo), compound alone (fraction); higher = more viable cells (less growth inhibition); conditions: cabozantinib 0 µM; 4 days
Structures can show the parent of a compound that is named as a salt. Whole data set: some 1,900 compounds, median “relative cell viability (CellTiter-Glo), compound alone” near 1, cut for the lowest 2% near 0.16. The sample holds the lowest values, similar compounds and a random draw of the others, so the mix is not that of the screen.
API: label(entry) gives met if the entry's relative cell viability is strictly smaller than 0.5; on equality or larger values it gives not met.

QUERY: Here's an entry: `CC(C)N(C[C@H]1O[C@@H](n2cnc3c(N)ncnc32)[C@H](O)[C@@H]1O)[C@H]1C[C@@H](CCc2nc3cc(C(C)(C)C)ccc3[nH]2)C1` . Is its relative cell viability below 0.5?
RESULT: not met

QUERY: Here's an entry: `CC(=O)N1c2ccc(-c3ccc(C(=O)O)cc3)cc2[C@H](Nc2ccc(Cl)cc2)C[C@@H]1C` . Is its relative cell viability below 0.5?
RESULT: not met

QUERY: Here's an entry: CN(C)CCN1C(=O)c2cccc3cc(N)cc(c23)C1=O [Amonafide] . Is its relative cell viability below 0.5?
RESULT: not met

QUERY: Here's an entry: `NC(=S)N/N=C/c1ncccc1N` . Is its relative cell viability below 0.5?
RESULT: not met

QUERY: Here's an entry: CO[C@H]1/C=C\C=C(/C)C(=O)NC2=CC(=O)C(NCCN(C)C)=C(C[C@@H](C)C[C@H](OC)[C@H](O)[C@@H](C)/C=C(\C)[C@@H]1OC(N)=O)C2=O [17-DMAG (Alvespimycin) HCl] . Is its relative cell viability below 0.5?
RESULT: met

QUERY: Here's an entry: Cc1nc2c([nH]1)-c1ccccc1N(C(=O)c1ccc(NC(=O)c3ccccc3-c3ccccc3)cc1)CC2 [Conivaptan HCl] . Is its relative cell viability below 0.5?
RESULT: not met

QUERY: Here's an entry: `Cc1c(CN2CCN(C(=O)[C@H](C)O)CC2)sc2c(N3CCOCC3)nc(-c3cnc(N)nc3)nc12` . Is its relative cell viability below 0.5?
RESULT: not met

QUERY: Here's an entry: `O=[N+]([O-])c1cn2c(n1)OC[C@@H](OCc1ccc(OC(F)(F)F)cc1)C2` . Is its relative cell viability below 0.5?
RESULT: not met

QUERY: Here's an entry: `CN1CCN(Cc2ccc(-c3cnc4[nH]cc(-c5ccc6[nH]ccc6c5)c4c3)cc2)CC1` . Is its relative cell viability below 0.5?
RESULT: not met

QUERY: Here's an entry: `CCNC(=O)C#Cc1ccc2c(C(=Nc3ccc(CN(C)C)cc3)c3ccccc3)c(O)[nH]c2c1` . Is its relative cell viability below 0.5?
RESULT: met

QUERY: Here's an entry: `CS(=O)(=O)N1CCN(Cc2cc3nc(-c4cccc5[nH]ncc45)nc(N4CCOCC4)c3s2)CC1` . Is its relative cell viability below 0.5?
RESULT: not met

QUERY: Here's an entry: `CC(C)(C)c1ccc(-c2nc3ccccc3[nH]2)cc1` . Is its relative cell viability below 0.5?
RESULT: not met

QUERY: Here's an entry: `CN[C@@H](C)C(=O)N[C@H](C(=O)N1CCC[C@H]1C(=O)Nc1snnc1-c1ccccc1)C1CCCCC1` . Is its relative cell viability below 0.5?
RESULT: met

QUERY: Here's an entry: `C[C@H]1O[C@@H](O[C@H]2[C@@H](O)C[C@H](O[C@H]3[C@@H](O)C[C@H](O[C@H]4CC[C@@]5(C)[C@H](CC[C@@H]6[C@@H]5C[C@@H](O)[C@]5(C)[C@@H](C7=CC(=O)OC7)CC[C@]65O)C4)O[C@@H]3C)O[C@@H]2C)C[C@H](O)[C@@H]1O` . Is its relative cell viability below 0.5?
RESULT: met

QUERY: Here's an entry: `C/C(=N\NC(=O)c1cccc(S(=O)(=O)N2CCOCC2)c1)c1cc(Cl)ccc1O` . Is its relative cell viability below 0.5?
RESULT: not met

QUERY: Here's an entry: `CCNC(=O)c1[nH]nc(-c2cc(Cl)c(O)cc2O)c1-c1ccc(OC)cc1` . Is its relative cell viability below 0.5?
RESULT: met

QUERY: Here's an entry: `CN1CCN(c2ccc(OC(F)(F)F)c(Nc3ncc4c(n3)-c3c(c(C(N)=O)nn3CCO)CC4)c2)CC1` . Is its relative cell viability below 0.5?
RESULT: met
